- system.tested: IGF-1R on NCI-H322 cells (UniProt P08069 31-1367, limits assumed)
- Sequence (P08069 31-1367 limits assumed): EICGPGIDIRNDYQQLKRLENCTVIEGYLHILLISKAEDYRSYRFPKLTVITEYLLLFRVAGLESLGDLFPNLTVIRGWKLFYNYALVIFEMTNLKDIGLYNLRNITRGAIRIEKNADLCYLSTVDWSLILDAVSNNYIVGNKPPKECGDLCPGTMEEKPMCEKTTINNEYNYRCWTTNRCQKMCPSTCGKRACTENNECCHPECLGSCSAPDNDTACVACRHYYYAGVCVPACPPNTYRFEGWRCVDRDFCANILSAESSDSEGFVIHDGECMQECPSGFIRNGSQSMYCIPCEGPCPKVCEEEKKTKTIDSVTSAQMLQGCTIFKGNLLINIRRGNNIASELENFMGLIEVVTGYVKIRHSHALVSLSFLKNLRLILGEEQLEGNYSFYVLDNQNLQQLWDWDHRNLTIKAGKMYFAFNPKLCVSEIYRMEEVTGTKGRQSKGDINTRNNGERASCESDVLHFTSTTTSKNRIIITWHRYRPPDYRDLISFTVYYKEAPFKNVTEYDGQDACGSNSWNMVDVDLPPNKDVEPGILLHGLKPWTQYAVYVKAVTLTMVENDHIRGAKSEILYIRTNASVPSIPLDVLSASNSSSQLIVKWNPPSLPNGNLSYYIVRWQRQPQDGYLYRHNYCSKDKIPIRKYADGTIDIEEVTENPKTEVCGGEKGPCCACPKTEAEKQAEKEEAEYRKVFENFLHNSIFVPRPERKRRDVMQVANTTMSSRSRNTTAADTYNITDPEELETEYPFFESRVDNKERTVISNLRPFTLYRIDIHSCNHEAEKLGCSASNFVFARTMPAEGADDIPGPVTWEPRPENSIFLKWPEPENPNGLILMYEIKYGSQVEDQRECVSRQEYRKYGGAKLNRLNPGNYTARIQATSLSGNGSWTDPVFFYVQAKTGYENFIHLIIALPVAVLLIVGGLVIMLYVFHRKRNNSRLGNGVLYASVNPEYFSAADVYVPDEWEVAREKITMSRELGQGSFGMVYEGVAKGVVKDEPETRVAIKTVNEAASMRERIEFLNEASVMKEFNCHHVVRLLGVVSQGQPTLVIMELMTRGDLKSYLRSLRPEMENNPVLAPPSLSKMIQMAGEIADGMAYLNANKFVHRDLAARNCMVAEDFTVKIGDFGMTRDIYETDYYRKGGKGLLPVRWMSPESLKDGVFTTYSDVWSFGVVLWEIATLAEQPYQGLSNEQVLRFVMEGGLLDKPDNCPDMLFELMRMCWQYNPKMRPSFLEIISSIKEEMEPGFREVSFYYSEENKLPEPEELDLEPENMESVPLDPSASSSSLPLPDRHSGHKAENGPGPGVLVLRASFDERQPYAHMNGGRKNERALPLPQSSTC
- assay.info: cell-based or functional assay
recorded.endpoint: Inhibition of Phosphorylation IC50 (ng/mL)
Note: unit ng/mL is implicit; provide only the numeric part.

# binder, Inhibition of Phosphorylation IC50 [ng/mL]
rows = [
    ("B10 antibody (antibody, V domains shown, Whole antibody) VH: QVELVESGGGVVQPGRSQRLSCAASGFTFSSYGMHWVRQAPGKGLEWVATIWFDGSSTYYADSVRGRFTISRDNSKNTLYLQMNSLRAEDTAVYFCARELGRRYFDLWGRGTLVSVSS VL: EIVLTQSPATLSLSPGERATLSCRASQSVSSYLAWYQQKPGQAPRLLIYDASKRATGIPARFSGSGSGTDFTLTISSLEPEDFAVYYCQQRSKYPPWTFGQGTKVESK", 16.2),
    ("B09 antibody (antibody, V domains shown, Whole antibody) VH: QVELVESGGGVVQPGRSQRLSCAASGFTFSSHGMHWVRQAPGKGLEWVAIIAGDASTTYYADSVRGRFTISRDNSKNTLYLQMNSLRAEDTAVYFCARELGRRYFDLWGRGTLVSVSS VL: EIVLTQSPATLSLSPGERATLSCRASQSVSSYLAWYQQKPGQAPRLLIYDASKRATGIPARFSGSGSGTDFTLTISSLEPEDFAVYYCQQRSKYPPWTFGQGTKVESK", 8.3),
    ("A11 antibody (antibody, V domains shown, Whole antibody) VH: QVELVESGGGVVQPGRSQRLSCAASGFTFSSYGMHWVRQAPGKGLEWVAYIWFDGSSTYYADSVRGRFTISRDNSKNTLYLQMNSLRAEDTAVYFCARELGRRYFDLWGRGTLVSVSS VL: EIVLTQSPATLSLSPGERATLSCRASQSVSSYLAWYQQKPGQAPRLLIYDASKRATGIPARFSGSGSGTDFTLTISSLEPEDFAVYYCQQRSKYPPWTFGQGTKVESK", 11.5),
]

Query: Which Inhibition of Phosphorylation IC50 is reported for this binder? D03 antibody (antibody, V domains shown, Whole antibody; also called clone D03) VH: QVELVESGGGVVQPGRSQRLSCAASGFTFSSHGMHWVRQAPGKGLEWVAYIWFDGSSTYYADSVRGRFTISRDNSKNTLYLQMNSLRAEDTAVYFCARELGRRYFDLWGRGTLVSVSS VL: EIVLTQSPATLSLSPGERATLSCRASQSVSSALAWYQQKPGQAPRLLIYDASKRATGIPARFSGSGSGTDFTLTISSLEPEDFAVYYCQQRSKYPPWTFGQGTKVESK
Response: 4.9

Query: Next up: H11 antibody (antibody, V domains shown, Whole antibody) VH: QVELVESGGGVVQPGRSQRLSCAASGFTFSSYGMHWVRQAPGKGLEWVATIWHDGSSTYYADSVRGRFTISRDNSKNTLYLQMNSLRAEDTAVYFCARELGRRYFDLWGRGTLVSVSS VL: EIVLTQSPATLSLSPGERATLSCRASQSVSSALAWYQQKPGQAPRLLIYDASKRATGIPARFSGSGSGTDFTLTISSLEPEDFAVYYCQQRGKYPPWTFGQGTKVESK
Response: 21.1
